Experiment: NCI Yeast Anticancer Drug Screen. Data for the cln2 rad14 strain (AID 165);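 further: 0% = growth equal to vehicle treated cultures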
Details: S. cerevisiae cln2 rad14 strain, at 50.0 µM (retest, dose inferred, filed as 5.0)
Method: Growth inhibition of yeast strains with defined genetic alterations is measured as a screen for potential anti-cancer activity. Selected strains with alterations in DNA damage repair or cell cycle control were exposed to compounds and growth inhibition was measured relative to vehicle treated controls. The strain used in this assay is cln2 rad14
This is part of a sample that, as a whole, favours compounds with a hit. Of some 79,000 tested, about 15% had one in any assay. Activity calls are given as the source filed them. No stated cut-off is given here; in the data, active means growth inhibition above about 70%; inactive means the rest.
// classify into label 1 = active, label 0 = inactive

Example entries begin here.
O=C(Oc1cc([N+](=O)[O-])ccc1Cl)Oc1cc([N+](=O)[O-])ccc1Cl ... label 1
S=c1[nH]nc(SCc2ccc(Cl)c(Cl)c2)c2[nH]cnc12 ... label 0
CCCCCCCCCCCCCC1OC(=O)C(C)=C1C(=O)O (stereo unspecified) ... label 0

Which outcome did this test record for the molecule CCOC(=O)C1(C#N)C(c2ccccc2)CC(O)(c2ccc([N+](=O)[O-])cc2)C(C(=O)c2ccc([N+](=O)[O-])cc2)C1c1ccccc1 (stereo unspecified) ? label 0

For this molecule, state the assay outcome: O=C1CCSC(=S)N1c1ccc(Br)c(Cl)c1 label 1

Returns: the outcome recorded for Cc1cc(N=[N+]=[N-])c2cc(C3CCCCC3)ccc2n1 in this assay. label 0

Any idea what this test logged for O=C1OCC2=C1C(c1ccc(Cl)cc1)c1cc3c(cc1O2)OCO3 (stereo unspecified) ? label 0

Name the outcome recorded for CC(=O)NC1CCCCC1c1ccc(C2CCCCC2NC(C)=O)cc1 (stereo unspecified) in the assay. label 0

Record lookup: outcome of this test for O=C1C=CC(=Nc2ccc(O)c3ncccc23)c2cccnc21 ? label 1

What outcome does the record of this test show for O=C(O)/C=C\C(=O)Nc1ccc2c(c1)C(=O)c1cc(F)ccc1-2 ? label 0

Could you kindly confirm the outcome this assay logged for BrC1CCCCCC1 ? label 0
